Molecular target: Recombinant human ATX (Homo sapiens (Human), UniProt Q13822)
Assay: ATX inhibition assay (choline release, Amplex Red fluorescence)
Conditions: ATX 10 nM, LPC 18:1 10 μM, 37° C., 20 min pre-incubation; mean of n≧2
Measure Name: log10(IC50) (log10 of the value in nM)

{"Compound": "Cc1nnn(Cc2cc(Cl)ccc2/C=C/C(=O)N2CC(S(C)(=O)=O)C2)n1 [Example 49.2]", "log10(IC50)": 2.68}
{"Compound": "Cc1nnn(Cc2cc(F)c(F)cc2/C=C/C(=O)N2CCC(Cc3nnc(C)o3)CC2)n1 [Example 42]", "log10(IC50)": 2.64}
{"Compound": "Cc1nnn(Cc2cc(Cl)ccc2/C=C/C(=O)N2CC[C@@H](c3nnc(C)o3)C[C@H]2C)n1 [Example 98]", "log10(IC50)": 1.82}
{"Compound": "Cc1noc(C2CCCCN2C(=O)/C=C/c2ccc(C(F)(F)F)cc2Cn2nnc(C)n2)n1 (single isomer, unassigned) [Example 5a]", "log10(IC50)": 0.54}
{"Compound": "Cc1nnn(Cc2cc(Cl)ccc2/C=C/C(=O)N2CCC[C@H]2c2nnc(C)o2)n1 [Example 8]", "log10(IC50)": 2.58}
{"Compound": "Cc1nnn(Cc2cc(Cl)ccc2COC(=O)N2CCC(c3nnc(C)o3)CC2)n1 [Example 47]", "log10(IC50)": 2.65}
{"Compound": "Cc1nnn(Cc2c(F)cccc2/C=C/C(=O)N2CCC(Cc3nnc(C)o3)CC2)n1 [Example 78]", "log10(IC50)": 3.16}
{"Compound": "Cc1nnn(Cc2cc(C(F)(F)F)ccc2/C=C/C(=O)N2CCC(CCOCCc3cnn[nH]3)CC2)n1 [Example 157]", "log10(IC50)": 0.96}
{"Compound": "Cc1nnn(Cc2cc(Cl)ccc2/C=C/C(=O)N2CCC(CC(=O)N3CCOCC3)CC2)n1 [Example 129]", "log10(IC50)": 1.69}
{"Compound": "Cc1nnn(Cc2cc(Cl)ccc2/C=C/C(=O)N2CCC(c3noc(C)n3)CC2)n1 [Example 19]", "log10(IC50)": 1.49}
{"Compound": "Cc1cc(CC(=O)N(C)C2CCN(C(=O)/C=C/c3ccc(C(F)(F)F)cc3Cn3nnc(C)n3)CC2)on1 [Example 95]", "log10(IC50)": 1.40}
{"Compound": "C[C@@H]1CN(Cc2ccc(F)cc2)CCN1C(=O)/C=C/c1ccc(Cl)cc1Cc1nnn(C)n1 [Example 143]", "log10(IC50)": 1.49}
{"Compound": "CNC(=O)[C@@H]1CC(F)(F)CN1C(=O)/C=C/c1ccc(C(F)(F)F)cc1Cn1nnc(C)n1 [Example 91]", "log10(IC50)": 2.20}
{"Compound": "Cc1nnn(Cc2cc(C(F)(F)F)ccc2/C=C/C(=O)N2CCCCC2c2noc(C)n2)n1 (single isomer, unassigned) [Example 38b]", "log10(IC50)": 2.61}
{"Compound": "Cc1nnn(Cc2cc(Cl)ccc2/C=C/C(=O)N2CCC(n3nnnc3C)CC2)n1 [Example 12]", "log10(IC50)": 2.20}
{"Compound": "Cc1nnn(Cc2cc(Cl)ccc2/C=C/C(=O)N2CCC(CCNC(=O)c3c[nH]nc3C(F)(F)F)CC2)n1 [Example 146]", "log10(IC50)": 1.23}

###

Biological target: Recombinant human ATX (Homo sapiens (Human), UniProt Q13822)
Test: ATX inhibition assay (choline release, Amplex Red fluorescence)
Details: ATX 10 nM, LPC 18:1 10 μM, 37° C., 20 min pre-incubation; mean of n≧2
pIC50: −log10 of the molar value.
Each entry below carries its reported pIC50.

{"Compound": "CNC(=O)COC1CCN(C(=O)/C=C/c2ccc(Cl)cc2Cn2nnc(C)n2)CC1 [Example 49.19]", "pIC50": 6.75}
{"Compound": "Cc1nnn(Cc2cc(C(F)(F)F)ccc2OCC(=O)N2CCC(CCCCCc3c[nH]nn3)CC2)n1 [Example 154]", "pIC50": 8.62}
{"Compound": "Cc1nnn(Cc2cc(C(F)(F)F)ccc2/C=C/C(=O)N2CCC(Cc3nnc(C)o3)CC2)n1 [Example 81]", "pIC50": 7.89}
{"Compound": "Cc1nnn(Cc2cc(Cl)ccc2/C=C/C(=O)N2CCN(Cc3cnn(C)c3)CC2)n1 [Example 140.9]", "pIC50": 7.47}
{"Compound": "Cc1nnn(Cc2cc(Cl)ccc2/C=C/C(=O)N2CCC(c3nnc(CN4CCCCC4)o3)CC2)n1 [Example 122]", "pIC50": 7.24}
{"Compound": "Cc1nnn(Cc2cc(C(F)(F)F)ccc2/C=C/C(=O)N2CCCC[C@H]2c2nnc(C)o2)n1 [Example 1]", "pIC50": 8.06}
{"Compound": "Cc1ccc(/C=C/C(=O)N2CCC(Cc3nnc(C)o3)CC2)c(Cn2nnc(C)n2)c1 [Example 72]", "pIC50": 6.54}
{"Compound": "Cc1nnn(Cc2cc(C(F)(F)F)ccc2/C=C/C(=O)N2CCC(NC(=O)CCCc3c[nH]nn3)CC2)n1 [Example 152]", "pIC50": 8.41}

###

Biological target: Recombinant human ATX (Homo sapiens (Human))
Experiment: ATX inhibition assay (choline release, Amplex Red fluorescence)
Conditions: ATX 10 nM, LPC 18:1 10 μM, 37° C., 20 min pre-incubation; mean of n≧2
pIC50: −log10 of the molar value.
# cutoff 8 applies to pIC50; >= gives YES, < gives NO

{"Compound": "CCc1nnc(C2CCN(C(=O)/C=C/c3ccc(C(F)(F)F)cc3Cn3nnc(C)n3)CC2)o1", "Assigned Class": "YES"}
{"Compound": "Cc1nnn(Cc2cc(C(F)(F)F)ccc2/C=C/C(=O)N2CCN(Cc3cnn(C)c3)CC2)n1", "Assigned Class": "YES"}
{"Compound": "Cc1nnc(CC2CCN(C(=O)/C=C/c3ccc(Cl)cc3Cn3ncnn3)CC2)o1", "Assigned Class": "NO"}
{"Compound": "Cc1nnn(Cc2cc(Cl)ccc2/C=C/C(=O)N2CC(c3nnc(C)o3)C2)n1", "Assigned Class": "NO"}
{"Compound": "Cc1noc(C2CCCCN2C(=O)/C=C/c2ccc(Cl)cc2Cn2nnc(C)n2)n1 (racemic) [Example 23]", "Assigned Class": "NO"}
{"Compound": "Cc1nnn(Cc2cc(Cl)ccc2/C=C/C(=O)N2CCN(Cc3coc(C)n3)C[C@H]2C)n1", "Assigned Class": "YES"}
{"Compound": "COCC1CCN(C(=O)/C=C/c2ccc(Cl)cc2Cn2nnc(C)n2)CC1", "Assigned Class": "NO"}
{"Compound": "Cc1nnn(Cc2cc(Cl)ccc2/C=C/C(=O)N2CCC(c3ncc(C)o3)CC2)n1", "Assigned Class": "YES"}
{"Compound": "Cc1nnn(Cc2cc(Cl)ccc2/C=C/C(=O)N2CCC(NC(=O)CCCc3c[nH]nn3)CC2)n1", "Assigned Class": "YES"}
{"Compound": "Cc1nnn(Cc2cc(Cl)ccc2/C=C/C(=O)N2CCCC(c3nc(C(C)C)no3)C2)n1 (racemic) [Example 34]", "Assigned Class": "NO"}

###

Each entry below carries its reported IC50.
Biological target: Recombinant human ATX (Homo sapiens (Human))
Assay: ATX inhibition assay (choline release, Amplex Red fluorescence)
Details: ATX 10 nM, LPC 18:1 10 μM, 37° C., 20 min pre-incubation; mean of n≧2
Measure Name: IC50 (nM)

{"Molecule": "Cc1nnn(Cc2cc(OC(F)(F)F)ccc2/C=C/C(=O)N2CCC(c3noc(C)n3)CC2)n1", "Measure Name": "IC50", "Meas Value": 12}
{"Molecule": "Cc1nnn(Cc2cc(Cl)ccc2/C=C/C(=O)N2CCCC(c3nc(C(C)C)no3)C2)n1 (single isomer, unassigned) [Example 34a]", "Measure Name": "IC50", "Meas Value": 18}
{"Molecule": "Cc1nnn(Cc2cc(Cl)ccc2/C=C/C(=O)N2CCC(c3nnc(C(C)C)o3)CC2)n1", "Measure Name": "IC50", "Meas Value": 3.9}
{"Molecule": "COc1ccc(CN2CCN(C(=O)/C=C/c3ccc(Cl)cc3Cn3nnc(C)n3)CC2)nc1", "Measure Name": "IC50", "Meas Value": 5.9}

###

Target: Recombinant human ATX (Homo sapiens (Human), UniProt Q13822)
Test: ATX inhibition assay (choline release, Amplex Red fluorescence)
Details: ATX 10 nM, LPC 18:1 10 μM, 37° C., 20 min pre-incubation; mean of n≧2
pIC50: −log10 of the molar value.

{"Molecule": "CCCNC(=O)COC1CCN(C(=O)/C=C/c2ccc(Cl)cc2Cn2nnc(C)n2)CC1", "pIC50": 7.28}
{"Molecule": "Cc1nnn(Cc2cc(C(F)(F)F)ccc2/C=C/C(=O)N2CCC(N(C)S(=O)(=O)c3ccc(F)cc3)CC2)n1", "pIC50": 7.62}
{"Molecule": "Cc1nnn(Cc2cc(C(F)(F)F)ccc2/C=C/C(=O)N2CCC(Cc3noc(C)n3)CC2)n1", "pIC50": 8.22}
{"Molecule": "Cc1nnn(Cc2cc(C(F)(F)F)ccc2/C=C/C(=O)N2CCN(Cc3nonc3C)CC2)n1", "pIC50": 7.48}
{"Molecule": "Cc1nnn(Cc2cc(C(F)F)ccc2/C=C/C(=O)N2CCC(c3nnc(C)o3)CC2)n1", "pIC50": 7.77}
{"Molecule": "Cc1nnn(Cc2cc(Cl)ccc2/C=C/C(=O)N2CCC(Oc3ccc(C(F)(F)F)cn3)CC2)n1", "pIC50": 6.49}
{"Molecule": "Cc1nnn(Cc2cc(Cl)ccc2/C=C/C(=O)N2CCC(c3nnc(C4CC4)o3)CC2)n1", "pIC50": 8.08}
{"Molecule": "Cc1nnn(Cc2cc(C(F)(F)F)ccc2/C=C/C(=O)N2CCC(c3nnc(C4CCC4)o3)CC2)n1", "pIC50": 8.28}
{"Molecule": "CCOC(=O)c1cnn(CC2(O)CCN(C(=O)/C=C/c3ccc(Cl)cc3Cn3nnc(C)n3)CC2)c1", "pIC50": 8.46}
{"Molecule": "Cc1nnn(Cc2cc(Cl)ccc2/C=C/C(=O)N2CC[C@H](NC(=O)C(F)(F)F)C2)n1", "pIC50": 6.89}
{"Molecule": "Cc1nnn(Cc2cc(Cl)ccc2/C=C/C(=O)N2CCN(c3ncccc3C(=O)N3CCCC3)CC2)n1", "pIC50": 7.11}
{"Molecule": "CCS(=O)(=O)N1CCN(C(=O)/C=C/c2ccc(C(F)(F)F)cc2Cn2nnc(C)n2)CC1", "pIC50": 7.28}
{"Molecule": "Cc1nnn(Cc2cc(Cl)ccc2/C=C/C(=O)N2CCC(CNC(=O)CCc3cc(O)no3)CC2)n1", "pIC50": 7.89}
{"Molecule": "Cc1nnn(Cc2cc(OC(F)(F)F)ccc2/C=C/C(=O)N2CCC(Cc3nnc(C)o3)CC2)n1", "pIC50": 7.92}
{"Molecule": "Cc1nnn(Cc2cc(C(F)(F)F)ccc2OCC(=O)N2CCC(c3noc(C)n3)CC2)n1", "pIC50": 6.77}
{"Molecule": "Cc1nnn(Cc2cccc(Cl)c2/C=C/C(=O)N2CCC(Cc3nnc(C)o3)CC2)n1", "pIC50": 6.69}
{"Molecule": "Cc1nnn(Cc2cc(Cl)ccc2/C=C/C(=O)N2CCC(Cc3ccccc3)CC2)n1", "pIC50": 7.17}
{"Molecule": "COC(=O)C1COCCN1C(=O)/C=C/c1ccc(Cl)cc1Cn1nnc(C)n1 (stereo not drawn)", "pIC50": 7.11}
